Attribution: patent US11447484B2

Measured pKi, listed per entry for reference.
# SYSTEM_TESTED: human recombinant D3 receptor (Homo sapiens (Human))
# Sequence (P35462 whole entry): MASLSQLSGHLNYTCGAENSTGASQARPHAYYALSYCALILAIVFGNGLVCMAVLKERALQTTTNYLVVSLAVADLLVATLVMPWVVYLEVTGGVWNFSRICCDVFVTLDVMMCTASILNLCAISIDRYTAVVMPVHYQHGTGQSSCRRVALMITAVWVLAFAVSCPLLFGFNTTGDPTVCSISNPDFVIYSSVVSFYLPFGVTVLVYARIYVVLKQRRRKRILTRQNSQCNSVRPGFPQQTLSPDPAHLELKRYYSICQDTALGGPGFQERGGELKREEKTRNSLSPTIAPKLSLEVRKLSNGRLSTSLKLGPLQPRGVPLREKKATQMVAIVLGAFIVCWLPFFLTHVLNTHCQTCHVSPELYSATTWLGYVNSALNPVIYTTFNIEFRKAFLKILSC
# ASSAY_INFO: Test of binding inhibition for dopamine D3 receptor
# PARTICULARS: Jump-In HEK cell membranes, 2 nM [3H]-Methylspiperone, 120 min at 25° C.; read-out: hD3_Ki
pKi: −log10 of the molar value.
OBSERVATION_TYPE: pKi

[
  {
    "COMPOUND": "Cn1cc2c(C(=O)N[C@H]3CC[C@](F)(CCN4C[C@@H]5C[C@]5(c5cc(C(C)(F)F)on5)C4)CC3)cccc2n1",
    "MEASURED_VALUE": 9.38
  },
  {
    "COMPOUND": "Cn1cc2c(C(=O)N[C@H]3CC[C@H](CCN4C[C@@H]5C[C@]5(c5cc(C(C)(F)F)on5)C4)CC3)cccc2n1",
    "MEASURED_VALUE": 9.52
  },
  {
    "COMPOUND": "CCc1cc([C@]23C[C@H]2CN(CC[C@H]2CC[C@H](NC(=O)c4cccn5nccc45)CC2)C3)no1",
    "MEASURED_VALUE": 9.33
  },
  {
    "COMPOUND": "Cn1cc2c(C(=O)N[C@H]3CC[C@](F)(CCN4CCC(c5nocc5C(C)(F)F)CC4)CC3)cccc2n1",
    "MEASURED_VALUE": 9.26
  },
  {
    "COMPOUND": "CCn1c(C(=O)N[C@H]2CC[C@H](CCN3C[C@@H]4C[C@]4(c4cc(C(C)(F)F)on4)C3)CC2)cccc1=O",
    "MEASURED_VALUE": 10.14
  },
  {
    "COMPOUND": "O=C(N[C@H]1CC[C@H](CCN2CCC(c3ccnn3-c3ccccc3)CC2)CC1)c1cccc2ncccc12",
    "MEASURED_VALUE": 8.40
  },
  {
    "COMPOUND": "Cn1cc2c(C(=O)N[C@H]3CC[C@H](CCN4CCN(c5nocc5C(C)(F)F)CC4)CC3)cccc2n1",
    "MEASURED_VALUE": 9.68
  },
  {
    "COMPOUND": "CCC(F)(F)c1conc1C1CCN(CC[C@H]2CC[C@H](NC(=O)c3cccc4nn(C)cc34)CC2)CC1",
    "MEASURED_VALUE": 10.07
  },
  {
    "COMPOUND": "Cc1ncc(CC(=O)N[C@H]2CC[C@H](CCN3CCC(c4nocc4CC4CC4)CC3)CC2)s1",
    "MEASURED_VALUE": 9.20
  },
  {
    "COMPOUND": "CCc1cc([C@]23C[C@H]2CN(CC[C@H]2CC[C@H](NC(=O)Cc4nnc(C)s4)CC2)C3)no1",
    "MEASURED_VALUE": 9.11
  },
  {
    "COMPOUND": "Cc1ncc(CC(=O)N[C@H]2CC[C@H](CCN3CCC(c4nscc4C(C)(F)F)CC3)CC2)s1",
    "MEASURED_VALUE": 8.72
  },
  {
    "COMPOUND": "Cn1cc2c(C(=O)N[C@H]3CC[C@H](CCN4CC5CC5(c5cc(C6CC6)on5)C4)CC3)cccc2n1 (some centres unmarked)",
    "MEASURED_VALUE": 9.70
  },
  {
    "COMPOUND": "CCc1cc([C@]23C[C@H]2CN(CC[C@H]2CC[C@H](NC(=O)Cc4cnn(C)c4)CC2)C3)no1",
    "MEASURED_VALUE": 9.21
  },
  {
    "COMPOUND": "Cc1ncc(CC(=O)N[C@H]2CC[C@H](CCN3CC4CC4(c4cc(CF)on4)C3)CC2)s1 (some centres unmarked)",
    "MEASURED_VALUE": 8.66
  }
]
